assay: xn = mol fraction of the nth substance listed; details: 298.15 K; 101 kPa; x1 = 0.2
Readout Name: viscosity (mPa·s)

> print(dat)
                     compound  quantitative.result
1  CC(=O)CC(C)=O + CCC(C)(C)O                1.809
2      CC(=O)CC(C)=O + CCCCCO                1.944
3    CC(=O)CC(C)=O + CC(C)CCO                1.997
4    CC(=O)CC(C)=O + CCCC(C)O                 1.65

----------
Reported viscosity values follow for various compounds
conditions: 318.15 K; 101 kPa
Readout Name: viscosity (mPa·s)

> print(dat)
                                   compound  quantitative.result
1                               O=C1CCCCCO1                 3.42
2                                CC(C)(N)CO                 32.2
3  CC[N+](C)(CC)CCOC.O=S(=O)([N-]S(=O)(=O)C(F)(F)F)C(F)(F)F                40.98
4                           CCCCN(CCCC)CCCC               0.9086
5                                  Cn1ccnc1                1.213
6                                CCC(C)(C)O                1.681

----------
conditions: 298.15 K; 101.33 kPa
Readout Name: viscosity (mPa·s)

> print(dat)
                 compound  readout.name  output.unit  quantitative.result
1        FC(F)(F)c1ccccc1     viscosity        mPa·s               0.5524
2         CCCCN(CCCC)CCCC     viscosity        mPa·s                 1.28
3                  C=CC#N     viscosity        mPa·s                0.339
4  CC(CC(C)(C)C)CC(C)(C)C     viscosity        mPa·s                1.217

----------
conditions: 308.15 K; 101 kPa
Readout Name: viscosity (mPa·s)

> print(dat)
                                   compound  quantitative.result
1  CC[N+](C)(CC)CCOC.O=S(=O)([N-]S(=O)(=O)C(F)(F)F)C(F)(F)F                67.72
2                                CC(C)(N)CO                 60.8
3                                    C=CC#N               0.3296
4                               O=C1CCCCCO1                4.324
5                                 [2H]O[2H]                0.879

----------
conditions: 298.15 K; 100 kPa
One threshold, 100 mPa·s, splits the recorded viscosity values: lower ones are Met, equal or higher ones are Not met.

> print(dat)
                                   compound  assigned.label
1                             CN(C)c1ccccc1             Met
2                                CC(C)(N)CO         Not met
3          CCCC[P+](CC)(CC)CC.N#Cc1ccc[n-]1         Not met
4             CCCCC(C)CC (stereo not given)             Met
5  CCCCCCCCCCCCCCCCCC[P+](CCCC)(CCCC)CCCC.N#Cc1ccc[n-]1         Not met

----------
assay: xn = mol fraction of the nth substance listed; settings: 298.15 K; 101 kPa; x1 = 0.5
Readout Name: viscosity (mPa·s)

> print(dat)
                     compound  quantitative.result
1    CC(=O)CC(C)=O + CC(C)CCO                1.063
2      CC(=O)CC(C)=O + CCCCCO                 1.05
3    CC(=O)CC(C)=O + CCCC(C)O                0.983
4  CC(=O)CC(C)=O + CCC(C)(C)O                0.987

----------
assay: xn = mol fraction of the nth substance listed; conditions: 298.15 K; 101 kPa; x1 = 0.6
Readout Name: viscosity (mPa·s)

> print(dat)
                     compound  quantitative.result
1    CC(=O)CC(C)=O + CC(C)CCO                0.933
2      CC(=O)CC(C)=O + CCCCCO                0.897
3    CC(=O)CC(C)=O + CCCC(C)O                0.918
4  CC(=O)CC(C)=O + CCC(C)(C)O                0.893

----------
settings: 323.15 K; 101 kPa
Readout Name: log10(viscosity) (log10 of the value in mPa·s)

> print(dat)
                                   compound  quantitative.result
1                           CCCCN(CCCC)CCCC                -0.07
2  CC(CC(C)(C)C)CP(=O)([O-])CC(C)CC(C)(C)C.CCCCCCCCCCCCCC[P+](CCCCCC)(CCCCCC)CCCCCC                 2.42
3                             CN(C)c1ccccc1                -0.07
4  CC[N+](C)(CC)CCOC.O=S(=O)([N-]S(=O)(=O)C(F)(F)F)C(F)(F)F                 1.52
5                          FC(F)(F)c1ccccc1                -0.34
6                                    C=CC#N                -0.54

----------
details: 303.15 K; 100 kPa
Reported log10 of viscosity values follow for various compounds
Readout Name: log10 of viscosity (log10 of the value in mPa·s)

> print(dat)
                                   compound  quantitative.result
1           CCCCC(C)CC (stereo unspecified)                -0.34
2            CCCCC(C)O (stereo unspecified)                 0.52
3                             CN(C)c1ccccc1                 0.08
4          CCCC[P+](CC)(CC)CC.N#Cc1ccc[n-]1                 2.02
5                                CC(C)(N)CO                 1.99
6  CCCCCCCCCCCCCCCCCC[P+](CCCC)(CCCC)CCCC.N#Cc1ccc[n-]1                 2.58
